Parameter: inhibition. Scope: all listed entries.
system: phosphomevalonate kinase (Streptococcus pneumoniae D39); assay: phosphomevalonate kinase enzyme inhibition – biochemical, mevalonate pathway, pilot trial included, primary screen (AID 539); details: purified PMK, PK/LDH-coupled NADH absorbance 340 nm; at 10 µM; hits give high values;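 further: 0% = full reaction with DMSO carrier and 100% = background rate without enzyme reaction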
Screen size: about 65,000 compounds; about 320 (0.49%) were called active. The sample as a whole holds a higher share of actives than the screen did.

These recorded examples may help you get a feel for the data.
MOLECULE	inhibition
OCc1nc(CO)n(Cc2ccccc2)n1	14% (inactive)
Cn1c(=O)c2c(nc(N3CCCCCC3)n2CC(O)COc2ccc(Cl)cc2)n(C)c1=O (stereo not drawn)	7% (inactive)

Turning now to a further molecule:
Measured inhibition of `CCN1CCN(c2c(Cl)cccc2NC(=O)c2ccc(Br)o2)CC1` : 8% (inactive)

====

system: phosphomevalonate kinase (Streptococcus pneumoniae D39); assay: phosphomevalonate kinase enzyme inhibition – biochemical, mevalonate pathway, pilot trial included, primary screen (AID 539); details: purified PMK, PK/LDH-coupled NADH absorbance 340 nm; at 10 µM; hits give high values
Out of some 65,000 compounds screened, about 320 (0.49%) were called active. Only a selection was taken, and actives are over-represented in it overall.
Parameter: inhibition. Scope: all listed entries.
Kindly answer with a numeric value in %, unit omitted.

phosphomevalonate kinase (Streptococcus pneumoniae D39) inhibition of `CNC(=O)c1c(NC(=O)c2ccc(S(=O)(=O)N3CCOCC3)cc2)sc2c1CCC2` is 7

====

test system: phosphomevalonate kinase (Streptococcus pneumoniae D39); test: phosphomevalonate kinase enzyme inhibition – biochemical, mevalonate pathway, pilot trial included, primary screen (AID 539); details: purified PMK, PK/LDH-coupled NADH absorbance 340 nm; at 10 µM;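 further: 0% = full reaction with DMSO carrier and 100% = background rate without enzyme reaction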
About 320 (0.49%) of roughly 65,000 compounds were called active.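 The calls were made as follows: active = top-ranked compounds by inhibition in the single 10 µM screen, taking a fixed number of the strongest; inactive = the rest, inconclusive results apart.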 Shown is part of a subset that was picked to be rich in actives.
Result category, one only: YES (active), NO (inactive)

Solved entries:
COMPOUND	CATEGORY
O=C(Nc1ccc(S(=O)(=O)N2CCCC2)cc1Cl)C1=COCCO1	NO
O=C(COC(=O)CCc1c[nH]c(=O)[nH]1)Nc1ccccc1Cl	NO
CC1CCc2c(sc(NC(=O)c3ccc(Cn4cc(Br)cn4)o3)c2C(N)=O)C1 (centres undefined)	NO
O=C(Nc1ccccc1F)C1C2C=CC3(O2)C1C(=O)N(c1cccnc1)C3C(=O)NC1CCCCC1 (centres undefined)	NO
O=S(=O)(c1ccc(OCC(O)CN2CCN(c3ccccc3Cl)CC2)cc1)N1CCOCC1 (centres undefined)	NO
C=CCn1c(C)cc(C(=O)CN2C(=O)c3ccccc3C2=O)c1C	NO

For `Cc1nn2c3cc(N4CCOCC4)ccc3nc2c2ccccc12` , what call appears in the results of this test? NO

For COC(=O)[C@H](Cc1ccccc1)NC(=O)N1CC(C)OC(C)C1 (some centres undefined) , what call appears in the results of this test? NO

For `COC(=O)CCSc1nccn1Cc1ccccc1` , what call appears in the results of this test? NO

For O=C(NCCCN1CCCCCC1)C1CC(=O)N(C2CCCC2)C1 (centres undefined) , what call appears in the results of this test? NO

For `CC1(C)CC(=O)C=C(NC2CC(C)(C)NC(C)(C)C2)C1` , what call appears in the results of this test? NO

For `CCOC(=O)c1nc(N)sc1C(=O)OCC` , what call appears in the results of this test? NO

For `CCOC(=O)N1CCN(Cc2nc3c(c(=O)n(C)c(=O)n3C)n2Cc2ccccc2)CC1` , what call appears in the results of this test? NO

For `CCOC(=O)CSc1nc2c(c(=O)n(Cc3ccccc3Cl)c(=O)n2C)n1C` , what call appears in the results of this test? NO

For `CC(C)Nc1nc(N(c2ccccc2)c2ccccc2)nc(-n2ccnc2)n1` , what call appears in the results of this test? NO

For CCOC(=O)CSC1=C(C#N)C(c2sccc2C)CC(=O)N1 (centres undefined) , what call appears in the results of this test? NO

For O=C(c1ccco1)N1CCN(C(=O)C2CC(c3ccc(Cl)c(Cl)c3)=NO2)CC1 (centres undefined) , what call appears in the results of this test? NO

For CC(C)C(NC(=O)c1cccc(S(=O)(=O)N2CCOCC2)c1)C(=O)NCCc1ccccn1 (centres undefined) , what call appears in the results of this test? NO

For `O=C(Nc1cccc2c1CCCC2)C1CCN(C(=O)NC2CCCCC2)CC1` , what call appears in the results of this test? NO

For `CC(C)OC(=O)CN1C(=O)c2ccccc2C1=O` , what call appears in the results of this test? YES

For `O=C(CN1CCOCC1)Nc1ccc(NC(=O)CN2CCOCC2)c(Cl)c1` , what call appears in the results of this test? NO

====

tested on: phosphomevalonate kinase (Streptococcus pneumoniae D39); assay: phosphomevalonate kinase enzyme inhibition – biochemical, mevalonate pathway, pilot trial included, primary screen (AID 539); details: purified PMK, PK/LDH-coupled NADH absorbance 340 nm; at 10 µM; hits give high values;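 further: 0% = full reaction with DMSO carrier and 100% = background rate without enzyme reaction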
Screen size: about 65,000 compounds; about 320 (0.49%) were called active. This is one part of a sample in which actives are shown more often than they occur.
Parameter: inhibition. Scope: all listed entries.

COMPOUND	inhibition
COCCNC(=O)C(C#N)c1nc2ccccc2nc1N1CCN(Cc2ccc3c(c2)OCO3)CC1 (stereo not drawn)	2% (inactive)
CCOc1cc2[nH]c(=S)n(CCCN3CCCC3=O)c(=O)c2cc1OCC	14% (inactive)
CCOC(=O)c1nnn(-c2nc(OC)nc(N(C)C)n2)c1-c1ccccc1	17% (inactive)
O=c1cc(CSc2ccccn2)nc(N2CCN(c3ccccc3)CC2)[nH]1	7% (inactive)
COc1ccc(CCN2C(=O)c3[nH]nc(-c4ccccc4O)c3C2c2ccc(C)cc2)cc1OC (stereo not drawn)	3% (inactive)
Cc1ccc(CCNC(=O)C2CCN(S(=O)(=O)N3CCCC3)CC2)cc1	0% (inactive)
COC(=O)CSc1nc(C2CC2)nc2ccccc12	15% (inactive)

Measured inhibition of `COc1ccccc1NC(=O)CN1CCN(S(=O)(=O)c2ccc(Br)cc2)CC1` : 5% (inactive)

====

Parameter: inhibition. Scope: all listed entries.
system: phosphomevalonate kinase (Streptococcus pneumoniae D39); assay: phosphomevalonate kinase enzyme inhibition – biochemical, mevalonate pathway, pilot trial included, primary screen (AID 539); conditions: purified PMK, PK/LDH-coupled NADH absorbance 340 nm; at 10 µM; hits give high values;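 further: 0% = full reaction with DMSO carrier and 100% = background rate without enzyme reaction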
The whole screen tested about 65,000 compounds, of which about 320 (0.49%) were called active. This is one part of a sample in which actives are shown more often than they occur.
Kindly answer with a numeric value in %, unit omitted.

MOLECULE	inhibition (%)
COC(=O)c1cc(OC)c(OC)cc1NC(=O)C1CCCO1 (stereo not drawn)	12
CCN(CC)S(=O)(=O)c1cccc(C(=O)NCC(=O)OCC(=O)NCc2ccccc2)c1	0
CCC(=O)c1ccc(OCC(O)CN2CCN(c3cccc(C(F)(F)F)c3)CC2)cc1 (stereo not drawn)	0
Cc1ccc(-c2ccc(=O)n(CC(=O)NCCCN3CCCCC3)n2)cc1	18
COc1ccccc1-n1cnc2cc(C(=O)NCC3CCCO3)ccc21 (stereo not drawn)	17
CC1CCCCC1NC(=O)CCS(=O)(=O)c1cccc2nonc12 (stereo not drawn)	0

phosphomevalonate kinase (Streptococcus pneumoniae D39) inhibition of `O=C(COc1ccc2c3c(c(=O)oc2c1)CCC3)NC1CCCCC1` is 15

phosphomevalonate kinase (Streptococcus pneumoniae D39) inhibition of C#CCN1CC(C)/C(=N/O)CC1C (stereo not drawn) is 7

phosphomevalonate kinase (Streptococcus pneumoniae D39) inhibition of CCOCCCN1C(=O)CN(C2CCCCC2)C(=O)C1c1ccc(OCC)c(OC)c1 (stereo not drawn) is 29

phosphomevalonate kinase (Streptococcus pneumoniae D39) inhibition of `CCCCNc1nc2c(c(=O)n(C)c(=O)n2C)n1Cc1cccc(OC)c1` is 0

phosphomevalonate kinase (Streptococcus pneumoniae D39) inhibition of Oc1c(C(c2ccco2)N2CCC3(CC2)OCCO3)sc2ncnn12 (stereo not drawn) is 0

phosphomevalonate kinase (Streptococcus pneumoniae D39) inhibition of CCC1CCCCN1CCNC(=O)c1[nH]c(C)c(C(C)=O)c1C (stereo not drawn) is 1

phosphomevalonate kinase (Streptococcus pneumoniae D39) inhibition of `Cc1csc(NC(=O)CN2CCCCCC2)n1` is 28
